Where do the numbers come from? From patent US9751885B2.

Overview of reported log10 of concentration at 1 h across a group of compounds:
Assay: Evaluation of hippocampal distribution in mouse
Format: in vivo
Conditions: plasma, male ICR mice, 10 mg/kg oral, 1 hr after administration, read-out: plasma concentration (mean)
Structures can show the parent of a compound that is named as a salt.
measurement.kind: log10 of concentration at 1 h (log10 of the value in ng/mL)

{"compound": "O=C(NC1CCC(F)(F)CC1)c1cccc([C@@H]2C[C@H]2NC2CCOCC2)c1 (relative stereo) [Example 177, hydrochloride]", "log10 of concentration at 1 h": 2.80}
{"compound": "O=C(NC1CC(F)(F)C1)c1cccc([C@@H]2C[C@H]2NC2CCC(F)(F)CC2)c1 (relative stereo) [Example 234, hydrochloride]", "log10 of concentration at 1 h": 2.24}
{"compound": "Cn1cc(NC(=O)c2cccc([C@@H]3C[C@H]3NC3CCC3)c2)cn1 (relative stereo) [Example 169, dihydrochloride]", "log10 of concentration at 1 h": 2.85}
{"compound": "Cc1nnc(NC(=O)c2cccc([C@@H]3C[C@H]3NC3CCN(C4CC4)CC3)c2)s1 (relative stereo) [Example 176, fumarate]", "log10 of concentration at 1 h": 2.71}
{"compound": "O=C(NC1CCC(F)(F)CC1)c1cccc([C@@H]2C[C@H]2NCC2CC2)c1 (relative stereo) [Example 102, hydrochloride]", "log10 of concentration at 1 h": 2.43}
{"compound": "Cc1nnc(NC(=O)c2cccc([C@@H]3C[C@H]3NC3CCC3)c2)s1 (relative stereo) [Example 174, hydrochloride]", "log10 of concentration at 1 h": 3.10}
{"compound": "O=C(Nc1cnn(CC2CC2)c1)c1cccc([C@@H]2C[C@H]2NCC2CCOCC2)c1 (relative stereo) [Example 87, dihydrochloride]", "log10 of concentration at 1 h": 2.40}
{"compound": "O=C(NC1CC(F)(F)C1)c1cccc([C@@H]2C[C@H]2NCC2CC2)c1 (relative stereo) [Example 99, hydrochloride]", "log10 of concentration at 1 h": 2.16}
{"compound": "Cc1cc(NC(=O)c2cccc([C@@H]3C[C@H]3NCC3CC3)c2)on1 (relative stereo) [Example 106, hydrochloride]", "log10 of concentration at 1 h": 1.52}
{"compound": "Cc1nnc(NC(=O)c2cccc([C@@H]3C[C@H]3NC3CCC(F)(F)CC3)c2)s1 (relative stereo) [Example 167, hydrochloride]", "log10 of concentration at 1 h": 3.09}
{"compound": "Cc1nnc(NC(=O)c2cccc([C@@H]3C[C@H]3NC3CCOCC3)c2)s1 (relative stereo) [Example 165, fumarate]", "log10 of concentration at 1 h": 3.26}
{"compound": "Cc1nnc(NC(=O)c2cccc([C@@H]3C[C@H]3NCC3CC3)c2)s1 (relative stereo) [Example 96, hydrochloride]", "log10 of concentration at 1 h": 3.03}
{"compound": "Cc1cc(NC(=O)c2cccc([C@@H]3C[C@H]3NC3CCC3)c2)no1 (relative stereo) [Example 232, hydrochloride]", "log10 of concentration at 1 h": 2.19}

====

Assay: Evaluation of hippocampal distribution in mouse
Format: in vivo
Conditions: hippocampus, male ICR mice, 10 mg/kg oral, 1 hr after administration, read-out: hippocampus concentration (mean)
Where a name gives a salt, the structure may show the parent alone.
Overview of reported concentration at 1 h across a group of compounds:
measurement.kind: concentration at 1 h

{"compound": "O=C(NC1CCC(F)(F)CC1)c1cccc([C@@H]2C[C@H]2NC2CCOCC2)c1 (relative stereo) [Example 177, hydrochloride]", "result": "324 ng/g"}
{"compound": "Cc1cc(NC(=O)c2cccc([C@@H]3C[C@H]3NCC3CC3)c2)no1 (relative stereo) [Example 103, hydrochloride]", "result": "1030 ng/g"}
{"compound": "Cn1cc(NC(=O)c2cccc([C@@H]3C[C@H]3NC3CCC(F)(F)CC3)c2)cn1 (relative stereo) [Example 205, dihydrochloride]", "result": "437 ng/g"}
{"compound": "Cc1nnc(NC(=O)c2cccc([C@@H]3C[C@H]3NCC3CC3)c2)s1 (relative stereo) [Example 96, hydrochloride]", "result": "602 ng/g"}
{"compound": "O=C(NC1CCC(F)(F)CC1)c1cccc([C@@H]2C[C@H]2NCC2CC2)c1 (relative stereo) [Example 102, hydrochloride]", "result": "482 ng/g"}
{"compound": "Cc1cc(NC(=O)c2cccc([C@@H]3C[C@H]3NCC3CCOCC3)c2)no1 (relative stereo)", "result": "527 ng/g"}
